# experimental-target: Leishmania infantum trypanothione disulfide reductase (LiTryR) (Leishmania infantum, UniProt A4HSF7)
# Construct: HIS; made in house; host or cells: E. coli BL21 (DE3) Rossetta 2
# Sequence (A4HSF7 entry or part of it): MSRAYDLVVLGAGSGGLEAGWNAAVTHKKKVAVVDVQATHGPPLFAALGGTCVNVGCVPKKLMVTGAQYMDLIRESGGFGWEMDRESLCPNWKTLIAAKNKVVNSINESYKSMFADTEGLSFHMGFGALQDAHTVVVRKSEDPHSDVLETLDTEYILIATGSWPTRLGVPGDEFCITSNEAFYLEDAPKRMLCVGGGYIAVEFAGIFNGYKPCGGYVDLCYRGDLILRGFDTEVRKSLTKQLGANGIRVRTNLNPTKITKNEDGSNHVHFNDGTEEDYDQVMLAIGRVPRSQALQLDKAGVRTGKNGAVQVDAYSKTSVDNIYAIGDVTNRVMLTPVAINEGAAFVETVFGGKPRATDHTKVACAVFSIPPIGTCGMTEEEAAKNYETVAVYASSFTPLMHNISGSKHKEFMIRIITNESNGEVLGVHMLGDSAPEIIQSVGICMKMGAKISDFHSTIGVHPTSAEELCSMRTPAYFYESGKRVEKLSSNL
# experiment-summary: LiTryR oxidoreductase activity assay (DTNB-coupled)
# Assay type: biochemical
# applied-conditions: modified DTNB-coupled assay, 26 °C, HEPES pH 7.5, HIS-LiTryR 7 nM, TS2 1 μM, NADPH 150 μM, inhibitor 0.1-25 μM, no preincubation; IC50 ± SE, three independent experiments in triplicate; SEM; read-out: IC50act, LiTryR oxidoreductase activity
pIC50: −log10 of the molar value.
y means recorded pIC50 is 5 or above; n means it is below 5.

>>> qualitative_label("CC[C@H](C)[C@H](NC(=O)CNC(=O)[C@@H](NC(=O)[C@H](CO)NC(=O)[C@H](CCC(N)=O)NC(=O)[C@@H](NC(=O)[C@@H](NC(=O)[C@H](CCCCN)NC(=O)[C@@H]1CCCN1C(=O)COCCOCCNC(=O)CN1C(=O)c2cccc3cccc1c23)[C@@H](C)CC)[C@@H](C)CC)C(C)C)C(N)=O")
"y"
>>> qualitative_label("CC[C@H](C)[C@H](NC(=O)CNC(=O)[C@@H](NC(=O)[C@H](CO)NC(=O)[C@H](CCC(N)=O)NC(=O)[C@@H](NC(=O)[C@@H](NC(=O)[C@H](CCCCN)NC(=O)[C@@H]1CCCN1C(=O)COCCOCCNC(=O)Cc1ccc(-c2ccccc2)cc1)[C@@H](C)CC)[C@@H](C)CC)C(C)C)C(N)=O")
"n"
>>> qualitative_label("CC[C@H](C)[C@H](NC(=O)CNC(=O)[C@@H](NC(=O)[C@H](CO)NC(=O)[C@H](CCC(N)=O)NC(=O)[C@@H](NC(=O)[C@@H](NC(=O)[C@H](CCCCN)NC(=O)[C@@H]1CCCN1C(=O)COCCNC(=O)CN1C(=O)c2cccc3cccc1c23)[C@@H](C)CC)[C@@H](C)CC)C(C)C)C(N)=O")
"y"

Provenance of the data: paper PMC8308777
